# test_target: Bombyx mori EcR (VP16 fusion, switch construct CVBE) with 6XEcRE LacZ reporter (Bombyx mori)
# Construct: expressed in transfected cells; host or cells: Human 293 kidney (HEK-293) cells, retrovirally infected, clone Z3
# Sequence (P49881 86-606 limits assumed): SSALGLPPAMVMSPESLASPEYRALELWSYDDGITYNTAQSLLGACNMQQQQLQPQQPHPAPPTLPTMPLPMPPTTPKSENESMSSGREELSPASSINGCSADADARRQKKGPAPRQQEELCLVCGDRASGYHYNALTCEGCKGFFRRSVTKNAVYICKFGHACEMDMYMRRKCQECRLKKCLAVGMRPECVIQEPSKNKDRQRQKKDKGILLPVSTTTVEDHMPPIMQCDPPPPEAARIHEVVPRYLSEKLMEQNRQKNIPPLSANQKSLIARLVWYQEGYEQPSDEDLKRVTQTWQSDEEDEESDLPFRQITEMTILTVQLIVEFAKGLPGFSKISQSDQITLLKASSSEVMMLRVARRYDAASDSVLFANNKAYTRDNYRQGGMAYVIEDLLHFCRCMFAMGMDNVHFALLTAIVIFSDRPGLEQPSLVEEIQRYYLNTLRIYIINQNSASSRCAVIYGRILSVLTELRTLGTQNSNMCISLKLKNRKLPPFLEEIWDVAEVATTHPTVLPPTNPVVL
# Sequence (P19793 1-462 partner): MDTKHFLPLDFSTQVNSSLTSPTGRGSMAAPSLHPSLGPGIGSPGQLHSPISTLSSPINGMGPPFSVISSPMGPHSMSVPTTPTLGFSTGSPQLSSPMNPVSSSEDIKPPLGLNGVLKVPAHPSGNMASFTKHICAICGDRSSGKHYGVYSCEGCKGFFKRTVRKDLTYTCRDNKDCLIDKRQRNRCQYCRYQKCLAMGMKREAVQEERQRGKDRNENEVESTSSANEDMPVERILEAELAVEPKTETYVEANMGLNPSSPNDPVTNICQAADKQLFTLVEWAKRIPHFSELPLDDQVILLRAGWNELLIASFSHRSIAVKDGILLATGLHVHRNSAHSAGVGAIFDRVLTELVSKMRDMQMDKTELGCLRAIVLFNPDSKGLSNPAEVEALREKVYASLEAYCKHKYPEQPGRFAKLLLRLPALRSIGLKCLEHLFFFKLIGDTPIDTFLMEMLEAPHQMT
# protocol: Z3 assay: β-galactosidase (LacZ) reporter gene fold induction in stably transformed human 293 kidney cells (clone Z3)
# Assay type: cell-based
# reported_conditions: maximum fold induction at any concentration relative to that of GS-E ligand
Parameter threshold = 0.7. Response is yes when Z3 Rel Max FI meets or exceeds it, else no.

Answered cases to consult:
molecule | qualitative_label
COc1cccc(C(=O)NC2(C(=O)c3ccccc3)CCCC2)c1C | no
CCc1c(C(=O)NC2(C(=O)c3cc(C)cc(C)c3)CCCC2)ccc2c1OCCO2 | yes
Cc1cc(C)cc(C(=O)C2(NC(=O)c3ccc4c(c3C)OCO4)CCCCC2)c1 | yes
COc1cccc(C(=O)NC2(C(=O)c3cccc(C)c3)CCCCC2)c1C | yes
O=C(NC1(C(=O)c2ccccc2)CCCC1)c1ccc2c(c1)OCO2 | no
COc1cccc(C(=O)NC2(C(=O)c3ccc(F)cc3)CCCCC2)c1C | no

Decide: is the reported value of Z3 Rel Max FI for COc1cccc(C(=O)NC2(C(=O)c3cc(C)cc(C)c3)CCSCC2)c1C equal to or greater than 0.7?
yes

Is Z3 Rel Max FI for COc1cccc(C(=O)NC2(C(=O)c3cc(C)cc(C)c3)CCS(=O)(=O)CC2)c1C at or above 0.7?
no

Does Z3 Rel Max FI meet or surpass 0.7 for CCc1c(C(=O)NC2(C(=O)c3cc(C)cc(C)c3)CCCCC2)ccc2c1OCCO2 ?
yes

Z3 Rel Max FI >= 0.7 for COc1ccc(C(=O)C2(NC(=O)c3cccc(OC)c3C)CCCCC2)c(OC)n1 ?
yes

Determine whether this molecule has Z3 Rel Max FI no lower than 0.7: Cc1cc(C)cc(C(=O)C2(NC(=O)c3ccc4c(c3C)OCO4)CCCC2)c1
no

Determine whether this molecule has Z3 Rel Max FI no lower than 0.7: Cc1cc(C)cc(C(=O)C2(NC(=O)c3ccc4c(c3)OCCO4)CCCC2)c1
no

Dear colleague, could you confirm whether COc1cccc(C(=O)NC(C)(C)C(=O)c2cc(C)cc(C)c2)c1C has Z3 Rel Max FI at or above 0.7?
no

Identify whether the reported Z3 Rel Max FI of the following molecule is 0.7 or greater: CCC(CC)(NC(=O)c1cccc(OC)c1C)C(=O)c1cc(C)cc(C)c1
no

# bool: Z3 Rel Max FI of COc1cccc(C(=O)NC2(C(=O)c3ccc(F)c(C)c3)CCCC2)c1C >= 0.7
no

Confirm if Z3 Rel Max FI reported for the molecule Cc1cc(C)cc(C(=O)C2(NC(=O)c3ccc4c(c3)COCO4)CCCC2)c1 is 0.7 or above.
no

Kindly determine if Z3 Rel Max FI recorded for CCc1c(OC)cccc1C(=O)NC1(C(=O)c2cc(C)cc(C)c2)CCCCC1 is above or exactly 0.7.
yes

Does CCC(CC)(NC(=O)c1cccc(OC)c1C)C(=O)c1cccc(OC)c1 have a reported Z3 Rel Max FI of at least 0.7?
no

Hello, I need to know if COC(=O)CN1CCCC(NC(=O)c2cccc(OC)c2C)(C(=O)c2cc(C)cc(C)c2)C1 (racemic) has measured Z3 Rel Max FI not below 0.7. Thanks!
no

Just for reference, patent US8129355B2 is where these values come from.
